Recorded viability, T/C for the following compounds
System: NCI-H1341 complex spheroids, percent test/control
Test: Anticancer human tumor NCI-H1341 cell line growth inhibition [AhR];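 also: spheroids exposed to agents for seven days before readout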
Settings: second compound 10 µM; first compound 0.0316 µM; stronger effect = lower value

{"columns": ["Compound", "viability, T/C (%)"],
 "data": [
  ["Nc1ccn(C2OC(CO)C(O)C2(F)F)c(=O)n1 (stereo not given) + Cc1ccccc1N=Nc1ccc(NC(=O)c2ccnn2C)c(C)c1", 44.2],
  ["COc1cc(C2c3cc4c(cc3C(OC3OC5COC(C)OC5C(O)C3O)C3COC(=O)C23)OCO4)cc(OC)c1O (stereo not given) + CC(CO)NC(=O)c1cc(-c2ccc(Cl)cc2)nn(-c2cnn(C)c2)c1=O", 63.5],
  ["COc1cccc2c1C(=O)c1c(O)c3c(c(O)c1C2=O)CC(O)(C(=O)CO)CC3OC1CC(N)C(O)C(C)O1 (stereo not given) + Cc1ccccc1N=Nc1ccc(NC(=O)c2ccnn2C)c(C)c1", 40.9],
  ["CC[C@@]1(O)C(=O)OCc2c1cc1n(c2=O)Cc2cc3c(CN(C)C)c(O)ccc3nc2-1 + Cc1ccccc1N=Nc1ccc(NC(=O)c2ccnn2C)c(C)c1", 49.6],
  ["O=C(C=Cc1cccc(S(=O)(=O)Nc2ccccc2)c1)NO + CC(CO)NC(=O)c1cc(-c2ccc(Cl)cc2)nn(-c2cnn(C)c2)c1=O", 70.6],
  ["O=C(C=Cc1cccc(S(=O)(=O)Nc2ccccc2)c1)NO + Cc1cncc(-c2nc(NCCc3c[nH]c4ccccc34)c3ncn(C(C)C)c3n2)c1", 37],
  ["O=C(c1cc(Cc2n[nH]c(=O)c3ccccc23)ccc1F)N1CCN(C(=O)C2CC2)CC1 + CC(CO)NC(=O)c1cc(-c2ccc(Cl)cc2)nn(-c2cnn(C)c2)c1=O", 70.2],
  ["Nc1ccccc1NC(=O)c1ccc(CNC(=O)OCc2cccnc2)cc1 + Cc1cncc(-c2nc(NCCc3c[nH]c4ccccc34)c3ncn(C(C)C)c3n2)c1", 21.9],
  ["Cn1ncnc1C1c2n[nH]c(=O)c3cc(F)cc(c23)NC1c1ccc(F)cc1 (stereo not given) + CC(CO)NC(=O)c1cc(-c2ccc(Cl)cc2)nn(-c2cnn(C)c2)c1=O", 66.1],
  ["CC1COCCN1c1cc(-c2ccnn2C)c2ccnc(-c3ccn[nH]3)c2n1 (stereo not given) + CC(CO)NC(=O)c1cc(-c2ccc(Cl)cc2)nn(-c2cnn(C)c2)c1=O", 33],
  ["COc1ccc([C@@H](O)c2cc(-c3ncnc4cc(N5CCOCC5)ccc34)c(F)cc2Cl)nn1 + CC(CO)NC(=O)c1cc(-c2ccc(Cl)cc2)nn(-c2cnn(C)c2)c1=O", 90.2],
  ["Nc1ccn(C2OC(CO)C(O)C2(F)F)c(=O)n1 (stereo not given) + CC(CO)NC(=O)c1cc(-c2ccc(Cl)cc2)nn(-c2cnn(C)c2)c1=O", 33.6],
  ["NS(=O)(=O)OCC1CC(n2ccc3c(NC4CCc5ccccc54)ncnc32)CC1O (stereo not given) + Cc1ccccc1N=Nc1ccc(NC(=O)c2ccnn2C)c(C)c1", 40.4],
  ["Nc1ccn(C2OC(CO)C(O)C2(F)F)c(=O)n1 (stereo not given) + Cc1cncc(-c2nc(NCCc3c[nH]c4ccccc34)c3ncn(C(C)C)c3n2)c1", 36.6],
  ["Cn1ncnc1C1c2n[nH]c(=O)c3cc(F)cc(c23)NC1c1ccc(F)cc1 (stereo not given) + Cc1cncc(-c2nc(NCCc3c[nH]c4ccccc34)c3ncn(C(C)C)c3n2)c1", 36.1],
  ["CC[C@@]1(O)C(=O)OCc2c1cc1n(c2=O)Cc2cc3c(CN(C)C)c(O)ccc3nc2-1 + Cc1cncc(-c2nc(NCCc3c[nH]c4ccccc34)c3ncn(C(C)C)c3n2)c1", 19.2],
  ["CC1(C)CCC(CN2CCN(c3ccc(C(=O)NS(=O)(=O)c4ccc(NCC5CCOCC5)c([N+](=O)[O-])c4)c(Oc4cnc5[nH]ccc5c4)c3)CC2)=C(c2ccc(Cl)cc2)C1 + Cc1cncc(-c2nc(NCCc3c[nH]c4ccccc34)c3ncn(C(C)C)c3n2)c1", 49.9],
  ["NS(=O)(=O)OCC1CC(n2ccc3c(NC4CCc5ccccc54)ncnc32)CC1O (stereo not given) + Cc1cncc(-c2nc(NCCc3c[nH]c4ccccc34)c3ncn(C(C)C)c3n2)c1", 26.4],
  ["O=C(c1cc(Cc2n[nH]c(=O)c3ccccc23)ccc1F)N1CCN(C(=O)C2CC2)CC1 + Cc1ccccc1N=Nc1ccc(NC(=O)c2ccnn2C)c(C)c1", 46.2],
  ["COc1ccc([C@@H](O)c2cc(-c3ncnc4cc(N5CCOCC5)ccc34)c(F)cc2Cl)nn1 + Cc1cncc(-c2nc(NCCc3c[nH]c4ccccc34)c3ncn(C(C)C)c3n2)c1", 18.4],
  ["Nc1ccccc1NC(=O)c1ccc(CNC(=O)OCc2cccnc2)cc1 + CC(CO)NC(=O)c1cc(-c2ccc(Cl)cc2)nn(-c2cnn(C)c2)c1=O", 56.6],
  ["Nc1ncn(C2CC(O)C(CO)O2)c(=O)n1 (stereo not given) + CC(CO)NC(=O)c1cc(-c2ccc(Cl)cc2)nn(-c2cnn(C)c2)c1=O", 79.8],
  ["COc1cc(Nc2ncc3c(n2)-c2ccc(Cl)cc2C(c2c(F)cccc2OC)=NC3)ccc1C(=O)O + CC(CO)NC(=O)c1cc(-c2ccc(Cl)cc2)nn(-c2cnn(C)c2)c1=O", 35.6],
  ["COc1cc(Nc2ncc3c(n2)-c2ccc(Cl)cc2C(c2c(F)cccc2OC)=NC3)ccc1C(=O)O + Cc1cncc(-c2nc(NCCc3c[nH]c4ccccc34)c3ncn(C(C)C)c3n2)c1", 25.4],
  ["COc1cc(Nc2ncc3c(n2)-c2ccc(Cl)cc2C(c2c(F)cccc2OC)=NC3)ccc1C(=O)O + Cc1ccccc1N=Nc1ccc(NC(=O)c2ccnn2C)c(C)c1", 44]
]}

====

Test system: NCI-H1341 complex spheroids, percent test/control
Assay: Anticancer human tumor NCI-H1341 cell line growth inhibition [AhR];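 also: spheroids exposed to agents for seven days before readout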
Settings: curve of first compound; second compound 10 µM
Recorded IC50 for the following molecules
Reported endpoint: IC50 (nM)

{"columns": ["Molecule", "Relation operator", "Value reported"],
 "data": [
  ["Nc1ncn(C2CC(O)C(CO)O2)c(=O)n1 (configuration not stated) + CC(CO)NC(=O)c1cc(-c2ccc(Cl)cc2)nn(-c2cnn(C)c2)c1=O", "=", 215],
  ["O=C(C=Cc1cccc(S(=O)(=O)Nc2ccccc2)c1)NO + Cc1ccccc1N=Nc1ccc(NC(=O)c2ccnn2C)c(C)c1", "=", 338],
  ["COc1cc(Nc2ncc3c(n2)-c2ccc(Cl)cc2C(c2c(F)cccc2OC)=NC3)ccc1C(=O)O + Cc1ccccc1N=Nc1ccc(NC(=O)c2ccnn2C)c(C)c1", "<", 31.6],
  ["CCN(c1cc(-c2ccc(CN3CCOCC3)cc2)cc(C(=O)NCc2c(C)cc(C)[nH]c2=O)c1C)C1CCOCC1 + Cc1ccccc1N=Nc1ccc(NC(=O)c2ccnn2C)c(C)c1", ">", 3000],
  ["O=C(c1cc(Cc2n[nH]c(=O)c3ccccc23)ccc1F)N1CCN(C(=O)C2CC2)CC1 + CC(CO)NC(=O)c1cc(-c2ccc(Cl)cc2)nn(-c2cnn(C)c2)c1=O", ">", 10000],
  ["CC[C@@]1(O)C(=O)OCc2c1cc1n(c2=O)Cc2cc3c(CN(C)C)c(O)ccc3nc2-1 + Cc1ccccc1N=Nc1ccc(NC(=O)c2ccnn2C)c(C)c1", "=", 35.2],
  ["COc1cc(Nc2ncc3c(n2)-c2ccc(Cl)cc2C(c2c(F)cccc2OC)=NC3)ccc1C(=O)O + Cc1cncc(-c2nc(NCCc3c[nH]c4ccccc34)c3ncn(C(C)C)c3n2)c1", "<", 31.6],
  ["Nc1ncn(C2CC(O)C(CO)S2)c(=O)n1 (configuration not stated) + CC(CO)NC(=O)c1cc(-c2ccc(Cl)cc2)nn(-c2cnn(C)c2)c1=O", "=", 234],
  ["O=C(C=Cn1cnc(-c2cc(C(F)(F)F)cc(C(F)(F)F)c2)n1)NNc1cnccn1 + Cc1ccccc1N=Nc1ccc(NC(=O)c2ccnn2C)c(C)c1", "<", 9.49],
  ["CC[C@@]1(O)C(=O)OCc2c1cc1n(c2=O)Cc2cc3c(CN(C)C)c(O)ccc3nc2-1 + CC(CO)NC(=O)c1cc(-c2ccc(Cl)cc2)nn(-c2cnn(C)c2)c1=O", "=", 32.4],
  ["Nc1ccccc1NC(=O)c1ccc(CNC(=O)OCc2cccnc2)cc1 + Cc1cncc(-c2nc(NCCc3c[nH]c4ccccc34)c3ncn(C(C)C)c3n2)c1", "<", 31.6],
  ["CCc1c2c(nc3ccc(O)cc13)-c1cc3c(c(=O)n1C2)COC(=O)[C@]3(O)CC + Cc1cncc(-c2nc(NCCc3c[nH]c4ccccc34)c3ncn(C(C)C)c3n2)c1", "<", 0.949]
]}
